I'd be grateful if you could share measured Fluorescence intensity, fluorescence competitive binding assay, OBP11 for these entries.
Target: SfurOBP11 (Sogatella furcifera)
Sequence (V5T6E3 entry or part of it): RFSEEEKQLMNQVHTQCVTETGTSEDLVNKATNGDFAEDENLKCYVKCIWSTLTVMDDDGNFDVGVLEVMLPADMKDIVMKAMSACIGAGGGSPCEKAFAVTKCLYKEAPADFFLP
Assay: biochemical
Format: binding
Details: ligand concentration 10, replicate 1
Description: Thirty-six rice odorants ([He et al., 2014]; [Wang et al., 2017]) and 1-N-phenyl-naphthylamine (1-NPN) were purchased from Sigma-Aldrich (St Louis, MO, USA). […] Fluorescence competitive binding assays were performed on Tecan Spark 10M (Tecan Group Ltd., Männedorf, Switzerland) with the F96 Black ELIAS Plate (Sangon) ([Khuhro et al., 2017]; [Liu et al., 2017]). The solutions were excited at 337 nm and emission spectra were recorded between 390 and 490 nm. […]
Give bare numbers.

Below are worked cases with known answers.
1. CCCCCCC=CCO [2-nonen-1-ol]: 32486
2. CCCCCCCCC=O [nonanal]: 29393
3. O=Cc1ccccc1 [benzaldehyde]: 21750

Batch: Fluorescence intensity, fluorescence competitive binding assay, OBP11 for all items listed.
1. CC(C)COC(=O)CCCCC(=O)OCC(C)C [DA(diisobutyl adipate)]
2. CCCCCCCC=O [octanal]

23466
27603

Hi there! I need Fluorescence intensity, fluorescence competitive binding assay, OBP11 for each item below, if you can.
1. C=CC(C)(O)CCC=C(C)CCC=C(C)C (mixture of isomers) [nerolidol]
2. CC(=O)c1ccccc1 [acetophenone]
3. CCCCCCCCCCCCO [lauryl alcohol]
4. CC1=CC[C@@H](C(C)(C)O)CC1 [α-terpineol]
5. CCCCCC(C)=O [2-heptanone]

1. 22613
2. 24885
3. 22957
4. 27115
5. 22448

Give measured Fluorescence intensity, fluorescence competitive binding assay, OBP11 for every item shown.
1. CCCCCCCCCCC [n-hendecane]
2. Cc1cc(C(C)(C)C)c(O)c(C(C)(C)C)c1 [BHT(2,6-di-tert-butyl-4-methylphenol)]

1: 30756; 2: 19539
